Origin of the recorded values: patent US20230172204A1

- Tested on: Phakopsora pachyrhizi (F129L)
- METHOD_DESCRIPTION: Protective control of soybean rust on soybeans (PHAKPA P6)
- Format: in vivo
- APPLIED_CONDITIONS: protective P6, 4 ppm, soybean rust F129L
# binarize % PHAKPA (F129L) Disease level P6 at 4 ppm: threshold 20% inclusive, high side Criterion met, low side Criterion not met

[
  {
    "COMPOUND": "CNC(=O)/C(=N/OC)c1cccc(C)c1CO/N=C(/c1ccccc1)C(F)(F)F [compound 458]",
    "CLASS_NAME": "Criterion met"
  },
  {
    "COMPOUND": "CO/N=C(/C(=O)OC)c1cccc(C)c1CO/N=C(\\C)c1ccc(F)c(F)c1 [compound 129]",
    "CLASS_NAME": "Criterion met"
  },
  {
    "COMPOUND": "CO/N=C(/C(=O)OC)c1cccc(C)c1CO/N=C(/c1ccccc1)C(F)F [compound 72]",
    "CLASS_NAME": "Criterion met"
  },
  {
    "COMPOUND": "CNC(=O)/C(=N/OC)c1cccc(C)c1CO/N=C(\\C)c1cccc(C2CC2(Cl)Cl)c1 (centres unmarked) [compound 75]",
    "CLASS_NAME": "Criterion not met"
  },
  {
    "COMPOUND": "CNC(=O)/C(=N/OC)c1cccc(C)c1CO/N=C(\\C)c1ccc(Br)cc1 [compound 168]",
    "CLASS_NAME": "Criterion not met"
  },
  {
    "COMPOUND": "CNC(=O)/C(=N/OC)c1cccc(C)c1CO/N=C(\\C)c1cc(Br)cc(Br)c1 [compound 142]",
    "CLASS_NAME": "Criterion met"
  },
  {
    "COMPOUND": "CNC(=O)/C(=N/OC)c1cccc(C)c1CO/N=C(\\C)c1ccc(F)cc1OC(F)(F)F [compound 378]",
    "CLASS_NAME": "Criterion not met"
  },
  {
    "COMPOUND": "CCc1ccc(/C(C)=N/OCc2c(C)cccc2/C(=N\\OC)C(=O)OC)cc1 [compound 183]",
    "CLASS_NAME": "Criterion met"
  },
  {
    "COMPOUND": "CO/N=C(/C(=O)OC)c1cccc(C)c1CO/N=C(\\C)c1cc(C)cc(C(F)(F)F)c1 [compound 65]",
    "CLASS_NAME": "Criterion met"
  },
  {
    "COMPOUND": "CO/N=C(/C(=O)OC)c1cccc(C)c1CO/N=C(\\C)c1cccc(C#CC(F)(F)F)c1 [compound 52]",
    "CLASS_NAME": "Criterion met"
  },
  {
    "COMPOUND": "CNC(=O)/C(=N/OC)c1cccc(C)c1CO/N=C(\\C)c1cccc(OC(F)F)c1 [compound 81]",
    "CLASS_NAME": "Criterion not met"
  },
  {
    "COMPOUND": "CNC(=O)/C(=N/OC)c1cccc(C)c1CO/N=C(\\C)c1ccc(OC)cc1OC(F)(F)F [compound 337]",
    "CLASS_NAME": "Criterion not met"
  },
  {
    "COMPOUND": "CNC(=O)/C(=N/OC)c1cccc(C)c1CO/N=C(\\C)c1cccc(C#N)c1 [compound 112]",
    "CLASS_NAME": "Criterion met"
  },
  {
    "COMPOUND": "CO/N=C(/C(=O)OC)c1cccc(C)c1CO/N=C(\\C)c1c(Cl)cccc1Cl [compound 171]",
    "CLASS_NAME": "Criterion met"
  },
  {
    "COMPOUND": "CO/N=C(/C(=O)OC)c1cccc(C)c1CO/N=C(\\C)c1cc(C(F)(F)F)cc(F)c1F [compound 180]",
    "CLASS_NAME": "Criterion not met"
  },
  {
    "COMPOUND": "C#Cc1ccc(/C(C)=N/OCc2c(C)cccc2/C(=N\\OC)C(=O)NC)cc1 [compound 196]",
    "CLASS_NAME": "Criterion not met"
  },
  {
    "COMPOUND": "CNC(=O)/C(=N/OC)c1cccc(C)c1CO/N=C(/c1ccc(F)cc1)C(F)F [Ex. 27]",
    "CLASS_NAME": "Criterion met"
  }
]
